# Tested on: CAKI-1
# METHOD_DESCRIPTION: NCI tumour cell line growth inhibition, 48 h
The source made the active and inactive calls. No stated cut-off is given here; in the data, active = GI50 up to about 1.1 µM and inactive = higher.
Please state which outcome applies, choosing from TRUE (active), FALSE (inactive)

Inquiry: Query: recorded result category for "Clc1ccc(Cc2nc3cc(Cl)ccc3o2)cc1" in this test
Reply text: FALSE

Inquiry: Query: recorded result category for "COc1cc2cc3c4c(cc(OC)c(OC)c4c2cc1OC)CCN3C(=O)CCCC(=O)O" in this test
Reply text: FALSE

---

Recorded GI50 values for a group of molecules are listed next.
# Tested on: SK-OV-3
# METHOD_DESCRIPTION: NCI tumour cell line growth inhibition, 48 h
Calls of active or inactive are those of the source. Cut-off read from the data, not from the text of the source: active = GI50 up to about 1.1 µM and inactive = higher. *1 amine or outer side, *2 acyl side, *3 side chain or, on linkers, in order; H or OH if unused. Where a SMILES comes first, the peptide text is derived from it. Bridges are numbered along the chain shown (N, C = ends). [ ]: non-standard residue; d: D form. The star is where a group is joined. X36 = O=C(C(CCCCNO[*:3])N[*:1])[*:2]; Fmoc = O=C(OCC1c2ccccc2-c2ccccc21)*

Cc1ccccc1C1SCc2nc3ccccc3n21 (centres undefined); > 100 µM (inactive)
COc1ccc(/C=N/N=C(\N)NO)c(OC)c1C; 34.4 µM (inactive)
COc1cc(C=C2C(=O)NC(=S)NC2=O)cc(OC)c1OC; > 100 µM (inactive)
N#CC1(C#N)C(c2ccccc2)C=CC(c2ccc([N+](=O)[O-])cc2)C1(C#N)C#N (centres undefined); 18.5 µM (inactive)
O=C(O)c1ccccc1-c1ccccc1C(=O)c1ccccc1; > 100 µM (inactive)
O=C(c1ccccc1)N1CCN(C(=S)NC2CCCCC2)C1=S; 25.7 µM (inactive)
CCCCCCCCCCCCCC(=O)OC(/C=C/C(C)C)C(O)C(O)C(OC)C(=O)NC1CCCCN(C)C1=O (centres undefined); 4.49 µM (inactive)
c1ccc([B-]2(c3ccccc3)NCCCO2)cc1; 85.7 µM (inactive)

Inquiry: Given NC(=O)CNC(=O)C1CCCN1C(=O)C1CCCCNOC(=O)CCC(NC(=O)OCC2c3ccccc3-c3ccccc32)C(=O)NC(Cc2c[nH]c3ccccc23)C(=O)N1 (centres undefined) (Fmoc-EW[X36]PG-NH2; ester 1-3; configuration not given here) , state its recorded GI50.
Reply text: 63.4 µM (inactive)

Inquiry: Given "Cc1cccc2[nH]c3c(c(O)cc4[nH]c5cccc(C)c5c(=O)c43)c(=O)c12" , state its recorded GI50.
Reply text: > 10 µM (inactive)

Inquiry: Given COc1cc(CC2c3cc(OC)c(OC)cc3CCN2C)c(C(=O)O)cc1OC (centres undefined) , state its recorded GI50.
Reply text: > 100 µM (inactive)

Inquiry: Given "O=C(CSc1nc2ccc(I)cc2c(=O)n1Cc1ccccc1)Nc1ccccc1" , state its recorded GI50.
Reply text: 12.1 µM (inactive)

---

# Test system: MOLT-4
# METHOD_DESCRIPTION: NCI tumour cell line growth inhibition, 48 h
Calls of active or inactive are those of the source. Cut-off read from the data, not from the text of the source: active = GI50 up to about 1.1 µM and inactive = higher.
Recorded GI50 values for a group of molecules are listed next.

Below: 2 molecules and their reported GI50.
Cc1cc2c(nn1)-c1ccccc1C2=O; > 10 µM (inactive)
CC(C(=O)O)c1cnn(-c2ccccc2)c1-n1cccc1 (stereo unspecified); > 100 µM (inactive)

Inquiry: Given "COc1ccc(/C=C/CO)cc1OC" , state its recorded GI50.
Reply text: > 100 µM (inactive)

Inquiry: Given "COc1ccc(CCn2ccc(=O)c(O)c2C)cc1OC" , state its recorded GI50.
Reply text: 16 µM (inactive)

Inquiry: Given Cc1cccc2c1Oc1cc(Cl)ccc1C2NC(=O)CCN1CCCCC1 (stereo unspecified) , state its recorded GI50.
Reply text: 16.1 µM (inactive)

Inquiry: Given "O=S(=O)(/N=C(\NO)Nc1ccc(Cl)cc1)c1cccc2nsnc12" , state its recorded GI50.
Reply text: 12.8 µM (inactive)

---

Recorded GI50 values for a group of compounds are listed next.
# Tested on: OVCAR-4
# METHOD_DESCRIPTION: NCI tumour cell line growth inhibition, 48 h
Calls of active or inactive are those of the source. Cut-off read from the data, not from the text of the source: active = GI50 up to about 1.1 µM and inactive = higher.

Below: 3 compounds and their reported GI50.
CSc1nncc(-c2cc3c(c(SC)n2)CCC3)n1; 48.1 µM (inactive)
N#C/C(=C\c1ccc[nH]1)C(=O)c1ccccc1; > 100 µM (inactive)
CCCCCCCCCCCC(=O)OCC1OC(OC)C(NC(=O)N(CCCl)N=O)C(O)C1O (centres undefined); 17.8 µM (inactive)

Could you now look at the following compound, please?
Inquiry: Given N/N=C(/C(=O)Nc1cccc(Cl)c1)C(C(=O)c1ccc(O)cc1O)C1OC(=O)c2ccccc21 (centres undefined) , state its recorded GI50.
Reply text: > 100 µM (inactive)

---

# Tested on: ACHN
# METHOD_DESCRIPTION: NCI tumour cell line growth inhibition, 48 h
Activity calls are given as the source filed them. No stated cut-off is given here; in the data, active = GI50 up to about 1.1 µM and inactive = higher.
Recorded GI50 values for a group of compounds are listed next.

COc1cc2c(c(OC)c1OC)C(=O)[C@H](Br)[C@H]2NC(=O)NCCCl; > 100 µM (inactive)
O=C(N/C(=C\c1ccc([N+](=O)[O-])cc1)c1nc2ccccc2s1)c1ccccc1; 29.2 µM (inactive)
CCN1C(=O)C(=C/C=C/c2ccc([N+](=O)[O-])cc2)C(=O)N(CC)C1=S; 18.1 µM (inactive)
O=C(NC1(C(=O)O)CC1c1ccccc1)c1ccccc1 (centres undefined); > 100 µM (inactive)

Inquiry: Given "C[C@]12CC=CC(=O)[C@@]1(C)CCC(=O)C2" , state its recorded GI50.
Reply text: > 100 µM (inactive)

Inquiry: Given "Cc1ccc(F)c2[nH]c(-c3ccccc3)cc(=O)c12" , state its recorded GI50.
Reply text: 8.77 µM (inactive)

Inquiry: Given "CC(CCC#N)(CCC#N)C(=O)CC(O)(C(F)(F)F)C(F)(F)F" , state its recorded GI50.
Reply text: 4.13 µM (inactive)

Inquiry: Given "O=c1ccn([C@@H]2C[C@H]2CO)c(=O)[nH]1" , state its recorded GI50.
Reply text: > 100 µM (inactive)

Inquiry: Given "CSC1=N/C(=C\c2ccccc2)C(=O)N1CN1CCOCC1" , state its recorded GI50.
Reply text: 38.9 µM (inactive)

Inquiry: Given "CC(C)(C)OC(=O)N1C[C@H](CC(=O)OCc2ccccc2)C[C@H]1C(=O)OCC(Cl)(Cl)Cl" , state its recorded GI50.
Reply text: 5.01 µM (inactive)

---

Assay read-out GI50; system under study: HCT-15.

Below: 6 compounds and their reported GI50.
COC(=O)C(CCSc1ccccc1)C(=O)OC; > 100 µM
O=N/N=c1\o[n-][n+](CCc2ccccc2)c1Cc1/c(=N/N=O)o[n-][n+]1CCc1ccccc1; > 100 µM
CC12CCCC(C(=O)O)(C1)[C@H](C(C)(C)C(=O)O)CC2 (stereo partly specified); > 100 µM
CCCC(=O)NC(Nc1ccc(S(=O)(=O)Nc2cc(C)on2)cc1)(C(=O)OCC)C(F)(F)F (stereo unspecified); > 100 µM
CC(C(=O)O)c1cnn(-c2ccccc2)c1-n1cccc1 (stereo unspecified); > 100 µM
O=C1C2Cc3ccccc3CN2C(=O)N1CCN1CCCC1 (stereo unspecified); > 100 µM

Inquiry: Missing value: GI50, HCT-15, entry "C/C(=N/NC(=O)c1ccncc1)C(F)(F)F" . Fill in?
Reply text: > 100 µM

Inquiry: Missing value: GI50, HCT-15, entry "CSc1nncc(-c2cc3c(c(SC)n2)CCC3)n1" . Fill in?
Reply text: > 100 µM

Inquiry: Missing value: GI50, HCT-15, entry N=C(N)/N=C(/C=C/c1ccccc1)CC1OC(=O)c2ccccc21 (stereo unspecified) . Fill in?
Reply text: > 100 µM

Inquiry: Missing value: GI50, HCT-15, entry "COc1ccc(OC)c2c1-c1nnnn1CCC2(C)C" . Fill in?
Reply text: > 100 µM

Inquiry: Missing value: GI50, HCT-15, entry Cc1ccccc1OC(C)C(=O)NN1C(=O)CC(=O)NC1=S (stereo unspecified) . Fill in?
Reply text: > 100 µM

Inquiry: Missing value: GI50, HCT-15, entry "CCOC(=O)C(=CNc1ccc(F)c(F)c1)C(=O)OCC" . Fill in?
Reply text: 88.3 µM

Inquiry: Missing value: GI50, HCT-15, entry "O=C1c2cccc3cccc(c23)C(=O)N1CCCNCCCCNCCCN1C(=O)c2cccc3cccc(c23)C1=O" . Fill in?
Reply text: 3.22 µM

---

Recorded GI50 values for a group of molecules are listed next.
# Tested on: NCI/ADR-RES
# METHOD_DESCRIPTION: NCI tumour cell line growth inhibition, 48 h
Calls of active or inactive are those of the source. Cut-off read from the data, not from the text of the source: active = GI50 up to about 1.1 µM and inactive = higher.

Below: 3 molecules and their reported GI50.
Cc1ccc(OCCn2cc(Nc3ccccc3)c(=O)[nH]c2=O)cc1; > 100 µM (inactive)
CCOC(=O)c1cn(CC)c2cc3c(cc2c1=O)CCS3(=O)=O; > 100 µM (inactive)
Nc1nccc(NCC2(CO)CC(OCc3ccccc3)C2)n1 (stereo unspecified); > 100 µM (inactive)

Inquiry: Given "CCOP(=O)(OCC)/C(C#N)=C/c1ccc(-c2ccc(F)cc2F)o1" , state its recorded GI50.
Reply text: 22.1 µM (inactive)

Inquiry: Given CC(C(=O)O)c1cnn(-c2ccccc2)c1-n1cccc1 (stereo unspecified) , state its recorded GI50.
Reply text: > 100 µM (inactive)

Inquiry: Given "COc1c2ccoc2cc2oc(=O)ccc12" , state its recorded GI50.
Reply text: > 100 µM (inactive)

Inquiry: Given "O=S1(=O)Cc2ccc3c4c2-c2c(ccc5ccc(c-4c25)CS(=O)(=O)C3)C1" , state its recorded GI50.
Reply text: > 100 µM (inactive)

Inquiry: Given "Cc1n[nH]c(=O)n1/N=C/c1ccc(Cl)cc1" , state its recorded GI50.
Reply text: 49.3 µM (inactive)

Inquiry: Given CCCN1C(=O)CC(C)N(Cc2ccccc2Cl)C1=S (stereo unspecified) , state its recorded GI50.
Reply text: 21.2 µM (inactive)

Inquiry: Given O=C1CS(=O)(=O)C(c2cccc(Oc3ccccc3)c2)N1c1cccc(Cl)c1 (stereo unspecified) , state its recorded GI50.
Reply text: 29.8 µM (inactive)

Inquiry: Given OC(c1ccc(Br)cc1)(c1cccs1)C1CC1 (stereo unspecified) , state its recorded GI50.
Reply text: 25.1 µM (inactive)

Inquiry: Given "c1ccc2c(c1)cc1n2CCc2c-1[nH]c1ccccc21" , state its recorded GI50.
Reply text: > 10 µM (inactive)
